System: Trichophyton benhamiae
Experiment: Antifungal activity towards Trichophyton mentagrophytes 530324 strain
Format: functional, Arthroderma benhamiae
For each entry below, report its log10(MIC) value.
Please be aware that the numbers have been log10-transformed from MIC in µg/mL.

ITEM SMILES	log10(MIC)
CCCc1nnnn1CC#CI	-0.11
O=[N+]([O-])c1c(Cl)c(Cl)n(CC(I)=C(I)I)c1Cc1cc(Cl)cc(Cl)c1O	1.40
CCCCCCCc1nnn(CC#CI)n1	-1.00

Please supply log10(MIC) for each of the following items, keeping them in order.
1. CC(=O)c1c(C)cn(CC#CI)c1C
2. O=[N+]([O-])c1c(Cl)cccc1-c1cn(CC#CI)cc1Cl
3. O=[N+]([O-])c1c(Cl)cccc1-c1cn(CC(I)=C(I)I)cc1Cl
4. IC(I)=C(I)Cn1nnnc1Cc1ccccc1
5. COc1ccc(Cl)cc1C(=O)c1cccn1CC(I)=C(I)I
6. IC(I)=C(I)Cn1nnc(-c2ccccc2)n1

1. 0.19
2. 0.80
3. 0.50
4. -1.00
5. 1.10
6. 0.19

Please supply log10(MIC) for each of the following items, keeping them in order.
1. IC#CCn1cnnn1
2. CCCc1nnn(CC#CI)n1
3. CCCCCCCc1nnnn1CC(I)=C(I)I

1. 0.19
2. -1.00
3. -1.00

Please supply log10(MIC) for each of the following items, keeping them in order.
1. O=[N+]([O-])c1cn(CC(I)=C(I)I)c(Cl)c1Cl
2. O=[N+]([O-])c1ccc(-c2nnn(CC#CI)n2)cc1
3. IC#CCn1nnc(-c2ccccc2)n1
4. IC#CCn1ncnn1

-0.70
-0.70
-0.70
-0.11

Please supply log10(MIC) for each of the following items, keeping them in order.
1. CCCc1nnn(CC(I)=C(I)I)n1
2. O=[N+]([O-])c1cn(CC(I)=C(I)I)cn1
3. CC(C)c1nnnn1CC#CI
4. CCc1nnnn1CC(I)=C(I)I
5. Cc1ccc(-c2nnn(CC#CI)n2)cc1
6. Cc1ccnn1CC#CI

1: -1.00; 2: -0.11; 3: 0.50; 4: 0.19; 5: -0.70; 6: -0.41

Please supply log10(MIC) for each of the following items, keeping them in order.
1. Cc1cc(C)n(CC#CI)n1
2. CC(=O)c1cccn1CC(I)=C(I)I
3. CCCCCc1nnnn1CC(I)=C(I)I
4. Fc1ccc(-c2nnn(CC#CI)n2)cc1

1. -0.11
2. 0.19
3. -1.00
4. -1.00

Please supply log10(MIC) for each of the following items, keeping them in order.
1. IC#CCn1nnc(C2CC2)n1
2. Clc1ccc(-c2nnn(CC#CI)n2)cc1
3. O=[N+]([O-])c1cccn1CC(I)=C(I)I

1. -0.41
2. -1.00
3. -0.70
